System: CGNs
Experiment: Glutamate Killing of CGNs
Type: cell-based, CD1 mice
Details: glutamate 100 uM; drug 1 μM
Source text: Glutaminergic neurons secrete the neurotransmitter glutamate as a part of normal cell signaling processes. Intracellular glutamate levels are regulated by glial cell uptake and conversion to glutamine. Under conditions of oxidative stress, as observed in various neurodegenerative diseases such as stroke, ALS, PD, and HD, glutaminergic neurons release massive amounts of glutamate into the […] fluid, overwhelming the surrounding cells. […]
Below, each entry is listed with its recorded % CGN Survival.

>  <molecule>
O=C1C=C(c2c[nH]c3ccc(OCc4ccccc4)cc23)C(=O)N1

>  <target.desc>
CGNs

>  <% CGN Survival [%]>
4.0

$$$$
>  <molecule>
CCSCc1ccc2c(c1)c1c3c(c4c5cc(CSCC)ccc5n5c4c1n2[C@H]1C[C@](O)(C(=O)OC)[C@]5(C)O1)CNC3=O [CEP 1347, reference compound]

>  <target.desc>
CGNs

>  <% CGN Survival [%]>
7.0

$$$$
>  <molecule>
COc1ccc2c(c1)c(C1=CC(=O)NC1=O)cn2S(=O)(=O)c1ccc(C)cc1

>  <target.desc>
CGNs

>  <% CGN Survival [%]>
11.5

$$$$
>  <molecule>
O=C1NC(=O)C2=C1c1c([nH]c3ccccc13)C1Cc3ccccc3N21 (stereo not shown)

>  <target.desc>
CGNs

>  <% CGN Survival [%]>
17.0

$$$$
